ASSAY TARGET: epidermal growth factor receptor tyrosine kinase (Homo sapiens)
Construct: A native 170,000 epidermal growth factor receptor-kinase complex from shed plasma membrane vesicles; endogenous in cells
Sequence (P00533 25-1210): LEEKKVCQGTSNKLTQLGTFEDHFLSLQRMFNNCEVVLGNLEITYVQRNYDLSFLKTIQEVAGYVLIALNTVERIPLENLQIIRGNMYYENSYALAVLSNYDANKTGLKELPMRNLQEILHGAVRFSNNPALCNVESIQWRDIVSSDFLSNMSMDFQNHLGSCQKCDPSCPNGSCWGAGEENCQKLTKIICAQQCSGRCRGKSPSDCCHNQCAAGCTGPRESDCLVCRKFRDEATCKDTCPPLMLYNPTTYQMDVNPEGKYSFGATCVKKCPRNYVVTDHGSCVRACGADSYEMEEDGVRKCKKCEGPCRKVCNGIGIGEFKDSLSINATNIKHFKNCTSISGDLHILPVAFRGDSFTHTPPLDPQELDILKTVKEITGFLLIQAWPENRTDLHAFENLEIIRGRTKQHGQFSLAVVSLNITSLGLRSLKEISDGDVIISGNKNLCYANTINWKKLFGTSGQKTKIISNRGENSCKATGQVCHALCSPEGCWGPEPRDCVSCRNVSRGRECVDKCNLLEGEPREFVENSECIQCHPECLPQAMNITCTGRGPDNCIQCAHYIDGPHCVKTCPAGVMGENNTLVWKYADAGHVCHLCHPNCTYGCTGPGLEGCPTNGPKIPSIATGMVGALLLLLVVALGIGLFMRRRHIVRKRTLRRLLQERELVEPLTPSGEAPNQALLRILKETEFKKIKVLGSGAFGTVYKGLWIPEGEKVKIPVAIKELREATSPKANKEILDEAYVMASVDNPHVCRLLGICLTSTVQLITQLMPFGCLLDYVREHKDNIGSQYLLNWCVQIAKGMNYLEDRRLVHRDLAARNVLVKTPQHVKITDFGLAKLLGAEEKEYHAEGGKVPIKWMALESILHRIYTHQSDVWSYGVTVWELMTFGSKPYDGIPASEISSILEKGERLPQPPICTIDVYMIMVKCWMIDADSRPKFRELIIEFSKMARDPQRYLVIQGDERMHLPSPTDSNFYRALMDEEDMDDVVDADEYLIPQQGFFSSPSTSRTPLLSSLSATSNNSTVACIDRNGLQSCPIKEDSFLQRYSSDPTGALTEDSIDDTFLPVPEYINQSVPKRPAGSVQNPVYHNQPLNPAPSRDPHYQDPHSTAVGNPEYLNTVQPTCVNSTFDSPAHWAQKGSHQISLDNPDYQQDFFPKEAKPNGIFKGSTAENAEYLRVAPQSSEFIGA
Sequence (P01133 971-1023 partner limits assumed): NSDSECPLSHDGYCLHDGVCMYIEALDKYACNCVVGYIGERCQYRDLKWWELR
PROTOCOL SUMMARY: EGF receptor tyrosine kinase assay (P^32 incorporation in GAT)
Type: biochemical
QUANTITY KIND: IC50 (µM)
Kindly provide the numeric value in µM only, without the unit symbol.

Please fill in: IC50 reported for Cn1c(SSc2c(C(=O)Nc3ccccc3)c3cc([N+](=O)[O-])ccc3n2C)c(C(=O)Nc2ccccc2)c2cc([N+](=O)[O-])ccc21 = 4.9

Entry under test: CNC(=O)c1c([Se][Se]c2c(C(=O)NC)c3ccccc3n2C)n(C)c2ccccc12 . Its IC50 was 5.8

Field IC50 (entry O=[N+]([O-])CCc1c(SSc2[nH]c3ccccc3c2CC[N+](=O)[O-])[nH]c2ccccc12 [Compound 49, 2,2'-dithiobis[3-(2-nitroethyl)indole]] ) reads 84.1
